# Tested on: PPARg:RXRa 270nM:90nM, anti-RXR (NR concentration 270 nM, RXRa partner concentration 90 nM)
# EXPERIMENTAL_PROTOCOL: PBM binding z-score (relative to random genomic background probes); higher = stronger binding; sequences stand for … in GC…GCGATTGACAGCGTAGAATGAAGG
PARAMETER: PBM binding z-score

>  <SEQ_TEXT>
CAAACTAGATCAAGAGGTCAAAGTCCGCTTCCCG

>  <PARAMETER>
PBM binding z-score

>  <NUMERIC_VALUE>
4.85

$$$$
>  <SEQ_TEXT>
ATTACAGGGTCACTAGGCCAGAGTAGGTACGAAT

>  <PARAMETER>
PBM binding z-score

>  <NUMERIC_VALUE>
6.86

$$$$
>  <SEQ_TEXT>
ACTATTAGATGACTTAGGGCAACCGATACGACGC

>  <PARAMETER>
PBM binding z-score

>  <NUMERIC_VALUE>
0.22

$$$$
>  <SEQ_TEXT>
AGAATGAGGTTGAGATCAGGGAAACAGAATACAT

>  <PARAMETER>
PBM binding z-score

>  <NUMERIC_VALUE>
0.227

$$$$
>  <SEQ_TEXT>
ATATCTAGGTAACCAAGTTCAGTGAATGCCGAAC

>  <PARAMETER>
PBM binding z-score

>  <NUMERIC_VALUE>
3.23

$$$$
>  <SEQ_TEXT>
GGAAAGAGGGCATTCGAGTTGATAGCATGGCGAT

>  <PARAMETER>
PBM binding z-score

>  <NUMERIC_VALUE>
1.19

$$$$
>  <SEQ_TEXT>
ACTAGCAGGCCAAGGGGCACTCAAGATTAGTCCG

>  <PARAMETER>
PBM binding z-score

>  <NUMERIC_VALUE>
4.46

$$$$
>  <SEQ_TEXT>
GCAAATAGGTAATACAAGGTGAAAGTCCGATTGT

>  <PARAMETER>
PBM binding z-score

>  <NUMERIC_VALUE>
1.19

$$$$
>  <SEQ_TEXT>
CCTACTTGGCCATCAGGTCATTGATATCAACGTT

>  <PARAMETER>
PBM binding z-score

>  <NUMERIC_VALUE>
1.36

$$$$
>  <SEQ_TEXT>
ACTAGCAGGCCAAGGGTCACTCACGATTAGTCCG

>  <PARAMETER>
PBM binding z-score

>  <NUMERIC_VALUE>
6.69

$$$$
>  <SEQ_TEXT>
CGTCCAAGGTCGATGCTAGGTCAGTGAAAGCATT

>  <PARAMETER>
PBM binding z-score

>  <NUMERIC_VALUE>
0.529

$$$$
>  <SEQ_TEXT>
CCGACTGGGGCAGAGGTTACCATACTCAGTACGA

>  <PARAMETER>
PBM binding z-score

>  <NUMERIC_VALUE>
7.57

$$$$
>  <SEQ_TEXT>
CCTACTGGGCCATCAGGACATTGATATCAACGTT

>  <PARAMETER>
PBM binding z-score

>  <NUMERIC_VALUE>
1.26

$$$$
>  <SEQ_TEXT>
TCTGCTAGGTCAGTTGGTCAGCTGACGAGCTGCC

>  <PARAMETER>
PBM binding z-score

>  <NUMERIC_VALUE>
1.68

$$$$
>  <SEQ_TEXT>
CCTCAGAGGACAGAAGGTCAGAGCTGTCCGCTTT

>  <PARAMETER>
PBM binding z-score

>  <NUMERIC_VALUE>
0.634

$$$$
>  <SEQ_TEXT>
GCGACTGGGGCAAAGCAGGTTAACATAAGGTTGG

>  <PARAMETER>
PBM binding z-score

>  <NUMERIC_VALUE>
1.19

$$$$
>  <SEQ_TEXT>
CGAACTAGGTCAGAACAGCACAGTGAAGGATGAT

>  <PARAMETER>
PBM binding z-score

>  <NUMERIC_VALUE>
4.59

$$$$
>  <SEQ_TEXT>
TCTACTAGGTCAGTTGGTCAGCTAACGAGCTGCC

>  <PARAMETER>
PBM binding z-score

>  <NUMERIC_VALUE>
4.2

$$$$
>  <SEQ_TEXT>
ACTCCGAGGACAAAGGTCAGAGCTACGCCAGTGA

>  <PARAMETER>
PBM binding z-score

>  <NUMERIC_VALUE>
7.6

$$$$
>  <SEQ_TEXT>
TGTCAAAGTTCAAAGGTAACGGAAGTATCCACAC

>  <PARAMETER>
PBM binding z-score

>  <NUMERIC_VALUE>
7.85

$$$$

---

Entries annotated with measured PBM binding z-score
# System: PPARg DBDmut:RXRa IVT, anti-PPARg (DBD mutation: PPARg1 K132A/R137A, NR concentration 270 nM, RXRa partner concentration 90 nM)
# EXPERIMENTAL_PROTOCOL: PBM binding z-score (relative to random genomic background probes); higher = stronger binding; sequences stand for … in GC…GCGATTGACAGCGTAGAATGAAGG
PARAMETER: PBM binding z-score

>  <SEQ_TEXT>
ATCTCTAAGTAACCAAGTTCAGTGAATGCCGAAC

>  <NUMERIC_VALUE>
0.36

$$$$
>  <SEQ_TEXT>
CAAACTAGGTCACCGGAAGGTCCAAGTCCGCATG

>  <NUMERIC_VALUE>
2.63

$$$$
>  <SEQ_TEXT>
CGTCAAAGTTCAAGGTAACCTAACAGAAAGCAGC

>  <NUMERIC_VALUE>
0.466

$$$$

---

# Tested on: LXRa homodimer (NR concentration 270 nM)
# EXPERIMENTAL_PROTOCOL: PBM binding z-score (relative to random genomic background probes); higher = stronger binding; sequences stand for … in GC…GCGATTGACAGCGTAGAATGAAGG
Where PBM binding z-score equals or exceeds 1, the correct label is yes (1); where it does not, the label is no (0).

>  <SEQ_TEXT>
ATACCAAGGTGATCGTGAGGTCCTTGATACTAAC

>  <STUDY_SYSTEM>
LXRa homodimer (NR concentration 270 nM)

>  <CATEGORY>
no (0)

$$$$
>  <SEQ_TEXT>
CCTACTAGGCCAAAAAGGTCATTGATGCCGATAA

>  <STUDY_SYSTEM>
LXRa homodimer (NR concentration 270 nM)

>  <CATEGORY>
yes (1)

$$$$
>  <SEQ_TEXT>
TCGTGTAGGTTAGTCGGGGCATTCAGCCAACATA

>  <STUDY_SYSTEM>
LXRa homodimer (NR concentration 270 nM)

>  <CATEGORY>
no (0)

$$$$
>  <SEQ_TEXT>
CCTTACGTGTCACTGACAGGTTATAGCATTTGGA

>  <STUDY_SYSTEM>
LXRa homodimer (NR concentration 270 nM)

>  <CATEGORY>
no (0)

$$$$
>  <SEQ_TEXT>
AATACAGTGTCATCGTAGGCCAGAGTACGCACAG

>  <STUDY_SYSTEM>
LXRa homodimer (NR concentration 270 nM)

>  <CATEGORY>
no (0)

$$$$
>  <SEQ_TEXT>
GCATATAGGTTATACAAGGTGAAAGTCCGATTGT

>  <STUDY_SYSTEM>
LXRa homodimer (NR concentration 270 nM)

>  <CATEGORY>
yes (1)

$$$$
>  <SEQ_TEXT>
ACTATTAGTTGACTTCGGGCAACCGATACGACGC

>  <STUDY_SYSTEM>
LXRa homodimer (NR concentration 270 nM)

>  <CATEGORY>
no (0)

$$$$
>  <SEQ_TEXT>
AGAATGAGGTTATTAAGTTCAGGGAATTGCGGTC

>  <STUDY_SYSTEM>
LXRa homodimer (NR concentration 270 nM)

>  <CATEGORY>
yes (1)

$$$$
>  <SEQ_TEXT>
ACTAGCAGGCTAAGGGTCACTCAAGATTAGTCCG

>  <STUDY_SYSTEM>
LXRa homodimer (NR concentration 270 nM)

>  <CATEGORY>
no (0)

$$$$
>  <SEQ_TEXT>
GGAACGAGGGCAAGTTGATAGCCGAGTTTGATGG

>  <STUDY_SYSTEM>
LXRa homodimer (NR concentration 270 nM)

>  <CATEGORY>
no (0)

$$$$
>  <SEQ_TEXT>
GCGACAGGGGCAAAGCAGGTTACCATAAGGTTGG

>  <STUDY_SYSTEM>
LXRa homodimer (NR concentration 270 nM)

>  <CATEGORY>
no (0)

$$$$
>  <SEQ_TEXT>
CCTACTGGACCAAAAAGGTCATTGATGCCGATAA

>  <STUDY_SYSTEM>
LXRa homodimer (NR concentration 270 nM)

>  <CATEGORY>
yes (1)

$$$$
>  <SEQ_TEXT>
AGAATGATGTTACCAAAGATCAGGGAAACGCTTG

>  <STUDY_SYSTEM>
LXRa homodimer (NR concentration 270 nM)

>  <CATEGORY>
no (0)

$$$$
>  <SEQ_TEXT>
TAGCCGAGGTCAGATCGGGCCAGTATACGCTATA

>  <STUDY_SYSTEM>
LXRa homodimer (NR concentration 270 nM)

>  <CATEGORY>
no (0)

$$$$
>  <SEQ_TEXT>
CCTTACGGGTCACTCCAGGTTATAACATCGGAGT

>  <STUDY_SYSTEM>
LXRa homodimer (NR concentration 270 nM)

>  <CATEGORY>
yes (1)

$$$$
>  <SEQ_TEXT>
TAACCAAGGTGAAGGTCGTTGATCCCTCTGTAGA

>  <STUDY_SYSTEM>
LXRa homodimer (NR concentration 270 nM)

>  <CATEGORY>
no (0)

$$$$
>  <SEQ_TEXT>
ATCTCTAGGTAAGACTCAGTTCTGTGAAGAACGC

>  <STUDY_SYSTEM>
LXRa homodimer (NR concentration 270 nM)

>  <CATEGORY>
no (0)

$$$$
>  <SEQ_TEXT>
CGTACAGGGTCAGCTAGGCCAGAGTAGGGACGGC

>  <STUDY_SYSTEM>
LXRa homodimer (NR concentration 270 nM)

>  <CATEGORY>
no (0)

$$$$
>  <SEQ_TEXT>
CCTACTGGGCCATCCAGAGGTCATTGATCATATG

>  <STUDY_SYSTEM>
LXRa homodimer (NR concentration 270 nM)

>  <CATEGORY>
yes (1)

$$$$
>  <SEQ_TEXT>
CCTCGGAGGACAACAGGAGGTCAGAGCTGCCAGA

>  <STUDY_SYSTEM>
LXRa homodimer (NR concentration 270 nM)

>  <CATEGORY>
yes (1)

$$$$
>  <SEQ_TEXT>
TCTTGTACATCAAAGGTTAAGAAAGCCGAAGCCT

>  <STUDY_SYSTEM>
LXRa homodimer (NR concentration 270 nM)

>  <CATEGORY>
no (0)

$$$$
>  <SEQ_TEXT>
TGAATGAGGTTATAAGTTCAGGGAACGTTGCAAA

>  <STUDY_SYSTEM>
LXRa homodimer (NR concentration 270 nM)

>  <CATEGORY>
no (0)

$$$$
